Tested on: HCT15 (human colon adenocarcinoma) cell line
assayInfo: MTT assay, in vitro cytotoxicity against HCT15
Format: cell-based
statedConditions: MTT, 24 h exposure, HCT15 cells; read-out: IC50 ± SEM HCT15
pIC50: −log10 of the molar value.
Threshold rule: pIC50 greater than or equal to 4 is rule met; below that, rule not met.

Confirm if pIC50 reported for the compound CN1CCNC1=S.CN1CCNC1=S.CN1CCNC1=S.CN1CCNC1=S.O.O.[Cl-].[Cl-].[Pt+2] is 4 or above.
rule not met

Continuing:
Hello, I need to know if N.N.O=C([O-])C1(C(=O)[O-])CCC1.[Pt+2] [Carboplatin, carboplatin, reference compound] has measured pIC50 not below 4. Thanks!
rule met

* * *

Test system: A549 (human lung carcinoma) cell line
assayInfo: MTT assay, in vitro cytotoxicity against A549
Format: cell-based
statedConditions: MTT, 24 h exposure, A549 cells; read-out: IC50 ± SEM A549
Response field label takes y when IC50 is strictly below 80 µM and n in all other cases.

Say whether its IC50 is strictly beneath 80 µM. Entry: CC(C)N1CCNC1=S.CC(C)N1CCNC1=S.CC(C)N1CCNC1=S.CC(C)N1CCNC1=S.O=[N+]([O-])[O-].O=[N+]([O-])[O-].[Pt+2]
n

Lab note: confirm whether the reported IC50 for this molecule is below 80 µM, equality not counting. molecule: CCCN1CCNC1=S.CCCN1CCNC1=S.CCCN1CCNC1=S.CCCN1CCNC1=S.[Cl-].[Cl-].[Pt+2]
y

Please determine if CN1CCNC1=S.CN1CCNC1=S.CN1CCNC1=S.CN1CCNC1=S.O.O.[Cl-].[Cl-].[Pt+2] is below 80 µM in terms of IC50.
y

Hello, I'm reviewing records and need to know if IC50 of CCN1CCCNC1=S.CCN1CCCNC1=S.CCN1CCCNC1=S.CCN1CCCNC1=S.[Pt+2] is below 80 µM. Could you check?
n

IC50 under 80 µM? Item: N.N.O=C([O-])C1(C(=O)[O-])CCC1.[Pt+2] [Carboplatin, carboplatin, reference compound]
y

Hello, I'm reviewing records and need to know if IC50 of CC(C)N1CCNC1=S.CC(C)N1CCNC1=S.CC(C)N1CCNC1=S.CC(C)N1CCNC1=S.[Cl-].[Cl-].[Pt+2] is below 80 µM. Could you check?
n

Next:
For this molecule, is IC50 lower than 80 µM? CCN1CCNC1=S.CCN1CCNC1=S.CCN1CCNC1=S.CCN1CCNC1=S.[Cl-].[Cl-].[Pt+2]
y

Could you please tell me whether IC50 recorded for N.N.[Cl][Pt][Cl] [Cisplatin, cisplatin, reference compound] is less than 80 µM?
y

# strict comparison: is reported IC50 < 80 µM? input = S=C1NCCCCN1.S=C1NCCCCN1.S=C1NCCCCN1.S=C1NCCCCN1.[Cl-].[Cl-].[Pt+2]
n

* * *

Can you tell me pIC50 for the items I'm about to list?
Test system: HCT15 (human colon adenocarcinoma) cell line
assayInfo: MTT assay, in vitro cytotoxicity against HCT15
Type: cell-based
statedConditions: MTT, 24 h exposure, HCT15 cells; read-out: IC50 ± SEM HCT15
Text: Monim-ul-Mehboob, A. A. Isab, V. Dhuna, G. Bhatia, K. Dhuna and S. Altuwaijri, New J. Chem., 39 (2015) 377-incorporated herein by reference in its entirety]. […] The absorbance of the 96 well-plates was taken at 570 nm with Labsystems Multiskan EX ELISA reader against a reagent blank. […]
Numbers only, as −log10 of the molar value.

Some compounds with recorded pIC50:
Please report pIC50 for the following compound: CCN1CCCNC1=S.CCN1CCCNC1=S.CCN1CCCNC1=S.CCN1CCCNC1=S.[Pt+2] [Complex (5)]
3.80

Give pIC50 for the following compound: N.N.[Cl][Pt][Cl] [Cisplatin, cisplatin, reference compound]
4.57

Look up and report measured pIC50 for this entry: S=C1NCCCCN1.S=C1NCCCCN1.S=C1NCCCCN1.S=C1NCCCCN1.[Cl-].[Cl-].[Pt+2] [Complex (6)]
3.97

--- query ---
Hello, please tell me recorded pIC50 for this one: CCN1CCNC1=S.CCN1CCNC1=S.CCN1CCNC1=S.CCN1CCNC1=S.[Cl-].[Cl-].[Pt+2] [Complex (2)]
4.38

* * *

Provide the recorded IC50 for the entries that follow.
System: HCT15 (human colon adenocarcinoma) cell line
assayInfo: MTT assay, in vitro cytotoxicity against HCT15
Assay type: cell-based
statedConditions: MTT, 24 h exposure, HCT15 cells; read-out: IC50 ± SEM HCT15
Just the number plus its unit, please.

Here's what some known entries look like.
Fill in reported IC50 for this entry: CC(C)N1CCNC1=S.CC(C)N1CCNC1=S.CC(C)N1CCNC1=S.CC(C)N1CCNC1=S.[Cl-].[Cl-].[Pt+2]
122 µM

Supply recorded IC50 for CCCN1CCNC1=S.CCCN1CCNC1=S.CCCN1CCNC1=S.CCCN1CCNC1=S.[Cl-].[Cl-].[Pt+2] here.
95.6 µM

Turning now to a further molecule:
Identify measured IC50 associated with CC(C)N1CCNC1=S.CC(C)N1CCNC1=S.CC(C)N1CCNC1=S.CC(C)N1CCNC1=S.O=[N+]([O-])[O-].O=[N+]([O-])[O-].[Pt+2]
116 µM
